Catalogue of compounds with associated TGI
Tested on: CCRF-CEM leukemia
MEASUREMENT PROTOCOL: NCI tumour cell line growth inhibition, 48 h
Where a SMILES comes first, the peptide text is derived from it. The star is where a group is joined. Boc = CC(C)(C)OC(=O)*; OBn = c1ccc(CO*)cc1

COC(=O)C(CCC(=O)CCl)N1C(=O)c2ccccc2C1=O (stereo not drawn)    6.34 µM
C[S+](C)CC1OC(n2cnc3c(N)ncnc32)C(O)C1O (stereo not drawn)    > 225 µM
CC(C)CC(NC(=O)OC(C)(C)C)C(=O)NC(CC(=O)OCc1ccccc1)C(=O)OCc1ccccc1 (stereo not drawn) (Boc-Leu-Asp(OBn)-OBn; configuration not given here)    > 100 µM

I looked up CC12CCCCC1=[N+]([O-])C(C)(C)N2O (stereo not drawn) and its TGI for CCRF-CEM leukemia was > 100 µM

I looked up Cn1c([C@H](C#N)C(=O)c2cc(O)ccc2[N+](=O)[O-])nc2ccccc21 and its TGI for CCRF-CEM leukemia was > 100 µM

I looked up Cc1c(C(=O)/C=C/C=C/c2ccccc2)[n+](=O)c2ccccc2n1[O-] and its TGI for CCRF-CEM leukemia was > 100 µM
